Target: T1, sIL-6R (soluble IL-6 receptor; SBH Sciences) (human, UniProt P08887 20-365)
T1 construct: also called human IL-6R
T1 sequence: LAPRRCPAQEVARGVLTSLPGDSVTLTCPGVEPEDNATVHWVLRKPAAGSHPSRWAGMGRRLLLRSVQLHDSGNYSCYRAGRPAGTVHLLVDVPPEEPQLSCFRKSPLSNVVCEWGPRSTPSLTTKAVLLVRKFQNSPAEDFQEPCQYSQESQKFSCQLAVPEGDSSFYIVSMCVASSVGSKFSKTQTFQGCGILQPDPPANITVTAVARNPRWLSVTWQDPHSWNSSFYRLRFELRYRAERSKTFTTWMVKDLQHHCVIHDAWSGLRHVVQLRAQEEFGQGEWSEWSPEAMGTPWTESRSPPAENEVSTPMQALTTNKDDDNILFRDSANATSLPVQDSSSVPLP
Test: SPR (BIAcore 3000), antibody on chip, sIL-6R analyte, 25 C

[
  {
    "BINDER": "233# (antibody, human IgG1, kappa, V domains shown) VH: QVQLQESGPGLVRPSQTLSLTCTVSGYSITSDHAWSWVRQPPGRGLEWIGYISYSGMITYNPSLKSRVTMLRDTSKNQFSLRLSSVTAADTAVYYCARTLARTTAIDFWGQGSLVTVSS VL: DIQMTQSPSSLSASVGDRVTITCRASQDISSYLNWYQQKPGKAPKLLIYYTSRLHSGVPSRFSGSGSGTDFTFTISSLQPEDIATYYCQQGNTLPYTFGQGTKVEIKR",
    "kon / M⁻¹ s⁻¹": 149000
  },
  {
    "BINDER": "52# (antibody, human IgG1, kappa, V domains shown, also called Sample # 52) VH: QVQLQESGPGLVRPSQTLSLTCTVSGYSITSDHAWSWVRQPPGRGLEWIGYISYSGITTYNPSLKSRVTMLRDTSKNQFSLRLSSVTAADTAVYYCARSLARTTAIDFWGQGSLVTVSS VL: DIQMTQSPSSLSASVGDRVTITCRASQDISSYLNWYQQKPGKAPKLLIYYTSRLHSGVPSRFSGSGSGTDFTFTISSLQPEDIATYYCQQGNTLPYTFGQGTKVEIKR",
    "kon / M⁻¹ s⁻¹": 107000
  },
  {
    "BINDER": "216# (antibody, human IgG1, kappa, V domains shown, also called Sample # 216) VH: QVQLQESGPGLVRPSQTLSLTCTVSGYSITSDHAWSWVRQPPGRGLEWIGYISYSGMITYNPSLKSRVTMLRDTSKNQFSLRLSSVTAADTAVYYCARSLARTTAIDFWGQGSLVTVSS VL: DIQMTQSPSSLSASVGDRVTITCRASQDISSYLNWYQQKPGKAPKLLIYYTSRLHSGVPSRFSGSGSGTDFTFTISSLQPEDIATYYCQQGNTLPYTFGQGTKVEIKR",
    "kon / M⁻¹ s⁻¹": 145000
  },
  {
    "BINDER": "223# (antibody, human IgG1, kappa, V domains shown, also called Sample # 223) VH: QVQLQESGPGLVRPSQTLSLTCTVSGYSITSDHAWSWVRQPPGRGLEWIGYISYSGMITYNPSLKSRVTMLRDTSKNQFSLRLSSVTAADTAVYYCARCLARMTAIDFWGQGSLVTVSS VL: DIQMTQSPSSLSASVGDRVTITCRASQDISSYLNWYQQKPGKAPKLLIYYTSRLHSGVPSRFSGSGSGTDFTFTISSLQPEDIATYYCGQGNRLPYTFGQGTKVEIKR",
    "kon / M⁻¹ s⁻¹": 133000
  },
  {
    "BINDER": "242# (antibody, human IgG1, kappa, V domains shown, also called Sample # 242) VH: QVQLQESGPGLVRPSQTLSLTCTVSGYSITSDHAWSWVRQPPGRGLEWIGYISYSGMITYNPSLKSRVTMLRDTSKNQFSLRLSSVTAADTAVYYCARSLARMTAIDFWGQGSLVTVSS VL: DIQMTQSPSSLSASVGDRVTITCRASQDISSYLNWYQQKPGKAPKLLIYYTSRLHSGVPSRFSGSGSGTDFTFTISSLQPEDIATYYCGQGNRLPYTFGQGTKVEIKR",
    "kon / M⁻¹ s⁻¹": 70200
  }
]
